Data provenance is PubChem BioAssay (NCATS).

Recorded measurements of activity, negative = inhibition, one per entry
PROCEDURE_DETAILS: qHTS profiling for inhibitors of Plasmodium falciparum proliferation (AID 504749); note: nearly all actives have a fitted effect of over 60% in size;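 for activity, negative = inhibition: 0% = DMSO vehicle and full inhibition = artemisinin control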
SETUP_CONDITIONS: P. falciparum in erythrocytes, SYBR Green DNA, 72 h; at 28.7 µM (top of the series); parasite line A
Records with an inconclusive call do not appear.
Numbers only; they are read as %.

Some compounds with known activity, negative = inhibition results, for comparison:
| COMPOUND | activity, negative = inhibition [%] |
| --- | --- |
| COc1ccc(C(=O)c2ccccc2)c(O)c1 | -10.8 |
| Cc1cc(NS(=O)(=O)c2ccc(N)cc2)nc(C)n1 | 9.36 |
| Cc1ncc(CO)c(C=O)c1O | 0.609 |
| CCCCCCCCCCCCCC(=O)OC(C)C | 2.55 |
| Cc1ccccc1OCC(O)CO (configuration not stated) | 13.7 |
| C=C[C@@]1(C)CC(=O)[C@]2(O)[C@@]3(C)[C@@H](O)CCC(C)(C)[C@@H]3[C@H](O)[C@H](OC(C)=O)[C@@]2(C)O1 | -7.28 |
| NS(=O)(=O)c1ccc(Cl)c(S(N)(=O)=O)c1 | 8.67 |
| CN1CCN(C2=Nc3ccccc3Sc3ccc(Cl)cc32)CC1 | -8.05 |
| COP(=O)(OC)OC(c1ccc(Cl)cc1)P(=O)(OC)OC (configuration not stated) | 10.6 |
| O=C(O)C(Cc1cc(I)c(O)c(I)c1)c1ccccc1 (configuration not stated) | -3.64 |

Query: I'd like to know its activity, negative = inhibition. The compound in question is `CC1=C(C(=O)O)N2C(=O)[C@@H](NC(=O)[C@H](N)c3ccccc3)[C@H]2SC1`
Reply: 3.04

Query: I'd like to know its activity, negative = inhibition. The compound in question is `CN(Cc1ccc(C(C)(C)C)cc1)Cc1cccc2ccccc12`
Reply: -10

---

Tested on: UISO
PROCEDURE_DETAILS: qHTS assay to identify novel small-molecules to repurpose for Merkel cell carcinoma treatment (AID 1296009); note: nearly all actives have a fitted effect of over 60% in size
SETUP_CONDITIONS: MCC and control cell lines, CellTiter-Glo viability, 72 h; series mostly up to 46 µM
Inconclusive results are not listed. Active and inactive are the calls of the source. Calls come from the whole dose curve; as a rule, active = well fitted inhibition curve with a large enough effect; inconclusive = small, poorly fitted or top-dose-only effect; inactive = flat fitted curve, though single readings scatter.
Log the outcome using a class from active, inactive

Worked set:
| COMPOUND | LABEL |
| --- | --- |
| CCCN(CCc1cccs1)[C@H]1CCc2c(O)cccc2C1 | inactive |
| CCC1NC(=O)c2cc(S(N)(=O)=O)c(Cl)cc2N1 (stereo unspecified) | inactive |
| O[C@@H](c1cc(C(F)(F)F)nc2c(C(F)(F)F)cccc12)[C@H]1CCCCN1 | active |

Query: Which result was noted for this compound in the test: CN(C)CCOC(c1ccc(Cl)cc1)c1ccccn1 (stereo unspecified)
Reply: inactive

Query: Which result was noted for this compound in the test: `CC(=O)OCC1=C(C(=O)O)N2C(=O)[C@@H](NC(=O)CSc3ccncc3)[C@H]2SC1`
Reply: inactive

Query: Which result was noted for this compound in the test: `N/C(=N\N=C\c1ccc(Cl)cc1)N/N=C/c1ccc(Cl)cc1`
Reply: inactive

---

Test system: W2
PROCEDURE_DETAILS: qHTS profiling for inhibitors of Plasmodium falciparum proliferation (AID 504749); note: nearly all actives have a fitted effect of over 60% in size; note: potency is the fitted concentration of half-maximal effect
SETUP_CONDITIONS: P. falciparum in erythrocytes, SYBR Green DNA, 72 h; series mostly up to 28.7 µM
Records with an inconclusive call do not appear. Calls of active or inactive are those of the source. Calls come from the whole dose curve; as a rule, active = well fitted inhibition curve with a large enough effect; inconclusive = small, poorly fitted or top-dose-only effect; inactive = flat fitted curve, though single readings scatter.
PARAMETER_MEASURED: Potency

Some compounds with known Potency results, for comparison:
| COMPOUND | Potency |
| --- | --- |
| CC(=O)Oc1ccc(C)cc1 | inactive |
| CN(C)CCOC(c1ccc(Cl)cc1)c1ccccn1 (stereo not drawn) | 1.07 µM (active) |
| C=CCN1CCc2nc(N)sc2CC1 | inactive |
| CN1CCN(CCC(=O)N2c3ccccc3Sc3ccc(C(F)(F)F)cc32)CC1 | 4.26 µM (active) |
| CCCN(CCc1cccs1)[C@H]1CCc2c(O)cccc2C1 | 1.35 µM (active) |

Query: I'd like to know its Potency. The compound in question is `CCc1oc2ccccc2c1C(=O)c1cc(Br)c(O)c(Br)c1`
Reply: inactive

Query: I'd like to know its Potency. The compound in question is `Cc1cc(CC(=O)O)c(C)n1-c1ccc(Cl)cc1`
Reply: 8.49 µM (active)

Query: I'd like to know its Potency. The compound in question is CCCCCCCCNC(C)C(O)c1ccc(SC(C)C)cc1 (stereo not drawn)
Reply: 0.169 µM (active)

---

TARGET_OR_SYSTEM: Cytochrome P450 2D6 (Homo sapiens) (UniProt P10635)
Sequence (P10635 whole entry, looked up): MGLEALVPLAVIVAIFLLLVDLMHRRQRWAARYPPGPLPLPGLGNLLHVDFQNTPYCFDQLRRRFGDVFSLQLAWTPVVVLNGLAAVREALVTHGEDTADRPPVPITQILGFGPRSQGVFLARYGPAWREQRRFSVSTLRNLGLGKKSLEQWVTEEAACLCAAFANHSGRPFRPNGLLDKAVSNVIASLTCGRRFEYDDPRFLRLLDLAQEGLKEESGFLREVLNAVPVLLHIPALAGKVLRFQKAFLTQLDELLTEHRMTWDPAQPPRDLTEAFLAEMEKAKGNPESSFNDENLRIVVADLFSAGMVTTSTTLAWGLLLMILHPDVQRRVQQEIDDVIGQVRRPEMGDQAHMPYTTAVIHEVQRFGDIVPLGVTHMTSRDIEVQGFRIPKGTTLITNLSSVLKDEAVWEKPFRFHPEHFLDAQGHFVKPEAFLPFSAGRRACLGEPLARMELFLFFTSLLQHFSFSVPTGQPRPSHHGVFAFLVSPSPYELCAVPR
PROCEDURE_DETAILS: Cytochrome P450 family 2 subfamily D member 6 (CYP2D6) small molecule antagonists: luciferase biochemical (cell-free) qHTS assay (AID 1645840); note: nearly all actives have a fitted effect of over 55% in size
SETUP_CONDITIONS: P450-Glo CYP2D6 enzyme, luciferin luminescence, 1 h; series mostly up to 57.4 µM
Excerpt: National Center for Advancing Translational Sciences [NCATS] Assay Overview: Cytochrome P450 (CYP) enzymes are membrane-bound hemeproteins that play a key role in metabolism of drugs and xenobiotics. Assaying the effect of chemicals on CYP isozymes is useful to minimize the adverse drug reactions and toxicities in drug development process. […] The luciferin products formed are detected with a luciferin detection reagent, and the amount of light produced is proportional to CYP activity. […]
Inconclusive results are not listed. The source made the active and inactive calls. Calls follow the shape of the dose curve; as a rule, active = well fitted inhibition curve with a large enough effect in the repeat runs; inconclusive = weak or mixed curves; inactive = flat fitted curve, though single readings scatter.
Log the outcome using a class from active, inactive

| SMILES_REPRESENTATION | LABEL |
| --- | --- |
| CC(=O)O[C@]1(C(C)=O)CC[C@H]2[C@@H]3C=C(Cl)C4=CC(=O)CC[C@]4(C)[C@H]3CC[C@@]21C | inactive |
| COc1ccc(-c2cc(C(F)F)nn2-c2ccc(S(N)(=O)=O)cc2)cc1F | active |
| O=C(Oc1cccc2cccnc12)c1ccccc1 | inactive |
| COc1cc(NS(=O)(=O)c2ccc(N)cc2)ncn1 | inactive |

Please turn your attention to the following entry.
Query: Which result was noted for this compound in the test: `CCOC(=O)c1c(N)sc2c1CCN(Cc1ccccc1)C2`
Reply: active

---

PROCEDURE_DETAILS: qHTS of pediatric cancer cell lines to identify multiple opportunities for drug repurposing: Primary screen for A673 cells (AID 1347092); note: nearly all actives have a fitted effect of over 45% in size
SETUP_CONDITIONS: A673 Ewing sarcoma viability, CellTiter-Glo ATP luminescence, 48 h; series mostly up to 46 µM
Records with an inconclusive call do not appear. The source made the active and inactive calls. The call rests on the fitted dose curve; in most records, active means well fitted cell-killing curve with a large enough effect; inconclusive means small, poorly fitted or top-dose-only effect; inactive means no such curve, though single readings can be large or run the other way.
Log the outcome using a class from 1 = active, 0 = inactive

Query: Which result was noted for this compound in the test: O=C(CCN1CCN2CCCC2C1)N1c2ccccc2Sc2ccc(Cl)cc21 (stereo unspecified)
Reply: 0

Query: Which result was noted for this compound in the test: CC(C)(Cc1c[nH]c2ccccc12)NCC(O)COc1ccccc1C#N (stereo unspecified)
Reply: 0

Query: Which result was noted for this compound in the test: `CCCCCCCCCCCCSCCOCCO`
Reply: 0

Query: Which result was noted for this compound in the test: `CNCCc1ccccn1`
Reply: 0

Query: Which result was noted for this compound in the test: `CC(=O)N[C@@H](CCC(=O)O)C(=O)O`
Reply: 0

Query: Which result was noted for this compound in the test: `CN(C)CCN1C(=O)c2ccccc2N(C)c2ccccc21`
Reply: 0

Query: Which result was noted for this compound in the test: `NC(N)=NN=C(/C=C/c1ccc([N+](=O)[O-])o1)/C=C/c1ccc([N+](=O)[O-])o1`
Reply: 1

Query: Which result was noted for this compound in the test: `CCOc1ccc(NC(C)=O)cc1`
Reply: 0

---

PROCEDURE_DETAILS: qHTS profiling for inhibitors of Plasmodium falciparum proliferation (AID 504749); note: nearly all actives have a fitted effect of over 60% in size;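 for activity, negative = inhibition: 0% = DMSO vehicle and full inhibition = artemisinin control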
SETUP_CONDITIONS: P. falciparum in erythrocytes, SYBR Green DNA, 72 h; at 28.7 µM (top of the series); parasite line A
Results filed as inconclusive are left out.
PARAMETER_MEASURED: activity, negative = inhibition (%)
Numbers only; they are read as %.

Some compounds with known activity, negative = inhibition results, for comparison:
| COMPOUND | UNITS_TEXT | activity, negative = inhibition |
| --- | --- | --- |
| CCOC(=O)[C@H](CCc1ccccc1)N[C@@H](C)C(=O)N1[C@H](C(=O)O)C[C@H]2CCCC[C@@H]21 | % | 8.44 |
| CC(=O)NO | % | -5.99 |
| CCN(CC)CCNC(=O)COc1ccc(OC)cc1 | % | 19.5 |
| CC(=O)Nc1ccc(CC(=O)O)cc1 | % | 9.92 |
| Cc1cc(C)cc(OCC2CNC(=O)O2)c1 (centres undefined) | % | -4.76 |
| N=C(N)N1CCc2ccccc2C1 | % | 15.6 |
| CCc1oc2ccccc2c1C(=O)c1cc(Br)c(O)c(Br)c1 | % | -3.41 |
| COc1ccc(/C=N/NC(=O)c2ccncc2)cc1OC | % | 6.74 |
| COc1cc([C@H]2Oc3cc([C@H]4Oc5cc(O)cc(O)c5C(=O)[C@@H]4O)ccc3O[C@@H]2CO)ccc1O | % | -10.1 |
| CC(C)Cc1ccc(CC(=O)O)cc1 | % | 5.78 |

Query: I'd like to know its activity, negative = inhibition. The compound in question is `CC(=O)Oc1ccc(C)cc1`
Reply: 9.31

Query: I'd like to know its activity, negative = inhibition. The compound in question is `C[C@@H](O)[C@H]1C(=O)N2C(C(=O)O)=C(S[C@@H]3CN[C@H](CNS(N)(=O)=O)C3)[C@H](C)[C@H]12`
Reply: 0.841

Query: I'd like to know its activity, negative = inhibition. The compound in question is `NCCNc1cccc2ccccc12`
Reply: -9.01
